Test: Log P by HPLC on reversed phase columns (EEC directive 79/831 Annex V.A8; methods [a], [b], [c])
Assay type: physicochemical
Procedure: Measurement of Log P values was performed according to EEC directive 79/831 Annex V.A8 by HPLC (High Performance Liquid Chromatography) on reversed phase columns with the following methods: • ^[a] Log P value is determined by measurement of LC-UV, in an acidic range, with 0.1% formic acid in water and acetonitrile as eluent (linear gradient from 10% acetonitrile to 95% acetonitrile). • ^[b] […]
Measured Endpoint: LogP

Worked cases, answers included:
CC(O)(Cn1cncc1Cl)c1ccc(Oc2ccc(C(F)(F)F)cc2)cc1C(F)(F)F (stereo not shown) [I-196]; 3.01^[a]
OC(Cn1cncc1Cl)c1ccc(Oc2ccc(Cl)cn2)cc1C(F)(F)F (stereo not shown) [I-65]; 2.21^[a]
CCCC(O)(Cn1cncc1C#N)c1ccc(F)cc1C(F)(F)F (stereo not shown) [I-459]; 2.71^[a]
N#Cc1cncn1CC(O)(c1ccc(F)cc1Cl)C1(Cl)CC1 (stereo not shown) [I-236]; 2.35^[a]
CC(C)(C)CC(O)(Cn1cncc1C#N)c1ccccc1Br (stereo not shown) [I-308]; 3.27^[a]
N#Cc1cncn1CC(O)(C=CCC(Cl)CCl)C1(F)CC1 (stereo not shown) [I-680]; 2.44^[a]

// switching to the query molecule
Problem: // Input: N#Cc1cncn1CC(O)(c1cc(Cl)cc(Cl)c1)C1(F)CC1 (stereo not shown) [I-472] . Output its LogP only.
Result: 2.67^[a]
